molecular target: N NTD-LKR;N CTD (SARS-CoV-2;SARS-CoV-2, UniProt P0DTC9;P0DTC9 44-247;248-369, |); test: fluorescence polarization
Value kind: pKd
Give bare numbers, as −log10 of the molar value.

**Q:** // pKd lookup, key: UUUCACCUCCCUUUCAGUUU (ssRNA) [20-nt ssRNA]
**A:** 6.36
